Data provenance: patent US20220073617A1

# pH 6.0/7.4 KD listing for each entry below
# test-system: T1, monovalent hVISTA-ECD (human VISTA extracellular domain with His tail) (human, UniProt Q9H7M9 33-193)
# T1 construct: analyte flowed over captured antibody; also called huVISTA-His
# T1 sequence (Q9H7M9 other isoform, or with tags, fused parts or gaps limits assumed): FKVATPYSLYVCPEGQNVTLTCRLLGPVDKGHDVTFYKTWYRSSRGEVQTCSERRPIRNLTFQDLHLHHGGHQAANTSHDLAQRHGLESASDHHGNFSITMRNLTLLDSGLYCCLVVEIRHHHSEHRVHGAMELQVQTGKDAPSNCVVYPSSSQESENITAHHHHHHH
# test-description: SPR
# respond with the number and nothing more

[[record]]
binder = "P1-063153 (41F11_HC_mutant: D31E/Y50W/S55E/Y100E) (antibody, V domains shown, Kabat positions; also called P1-063153-5) VH: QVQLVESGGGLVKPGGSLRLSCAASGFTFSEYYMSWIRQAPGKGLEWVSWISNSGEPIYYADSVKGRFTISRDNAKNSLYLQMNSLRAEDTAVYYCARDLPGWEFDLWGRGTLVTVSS VL: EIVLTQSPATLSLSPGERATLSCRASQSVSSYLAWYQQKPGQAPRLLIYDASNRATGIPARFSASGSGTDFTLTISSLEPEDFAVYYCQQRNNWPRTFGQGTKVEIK"
test_result = 0.8

[[record]]
binder = "P1-064391 (41F11_HC_Mutant: D31E/Y50W/S55E/Y100E 41F11_LC_Mutant: V29D/A64G/R91T) (antibody, V domains shown, Kabat positions; also called P1-064391-1) VH: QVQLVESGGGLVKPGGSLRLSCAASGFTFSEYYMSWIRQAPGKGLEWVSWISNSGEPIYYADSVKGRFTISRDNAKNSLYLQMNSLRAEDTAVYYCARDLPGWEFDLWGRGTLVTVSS VL: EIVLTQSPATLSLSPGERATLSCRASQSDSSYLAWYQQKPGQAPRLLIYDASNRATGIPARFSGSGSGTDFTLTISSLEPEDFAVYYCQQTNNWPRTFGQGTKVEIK"
test_result = 0.2


Lab note: next binder to report on.
Form field: reported pH 6.0/7.4 KD of P1-063001 (41F11_LC_Mutant: V29D/A64G/R91T) (antibody, V domains shown, also called P1-063001-5; P1-063001-6) VH: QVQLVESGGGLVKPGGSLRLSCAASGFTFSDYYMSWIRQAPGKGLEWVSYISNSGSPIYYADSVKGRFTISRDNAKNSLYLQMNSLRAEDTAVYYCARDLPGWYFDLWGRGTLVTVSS VL: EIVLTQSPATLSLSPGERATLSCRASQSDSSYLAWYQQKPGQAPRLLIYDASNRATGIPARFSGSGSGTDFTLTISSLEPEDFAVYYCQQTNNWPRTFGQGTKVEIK
2.7
